biological target: ferroportin (Homo sapiens, UniProt Q9NP59); assay: T47D cell-based ferroportin internalization assay in presence of mouse serum albumin (MSA); parameters: a human breast carcinoma adherent cell line which endogenously expresses ferroportin; host or cells: T47D; conditions: Table 6E; T47D internalization assay with MSA
Sequence (Q9NP59 whole entry): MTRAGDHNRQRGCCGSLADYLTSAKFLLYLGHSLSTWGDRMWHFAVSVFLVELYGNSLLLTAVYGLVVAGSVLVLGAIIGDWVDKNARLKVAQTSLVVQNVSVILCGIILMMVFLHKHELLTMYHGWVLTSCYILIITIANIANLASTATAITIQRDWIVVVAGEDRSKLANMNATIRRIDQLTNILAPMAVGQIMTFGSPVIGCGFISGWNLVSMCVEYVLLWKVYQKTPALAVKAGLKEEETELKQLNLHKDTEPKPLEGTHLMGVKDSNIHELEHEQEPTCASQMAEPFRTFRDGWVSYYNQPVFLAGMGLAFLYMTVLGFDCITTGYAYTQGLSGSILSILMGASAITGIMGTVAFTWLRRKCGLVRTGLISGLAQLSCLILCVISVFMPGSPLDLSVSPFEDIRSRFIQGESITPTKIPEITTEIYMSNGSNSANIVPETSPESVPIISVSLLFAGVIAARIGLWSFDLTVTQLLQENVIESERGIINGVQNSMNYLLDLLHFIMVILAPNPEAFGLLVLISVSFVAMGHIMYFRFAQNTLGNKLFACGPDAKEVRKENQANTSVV
pIC50: −log10 of the molar value. Positions of bridges follow the written chain, without caps; N, C: chain ends. Non-standard residues stand in square brackets, D forms with d. Residues, ends and D or L forms follow the SMILES beside them. Groups on a side chain read outwards from the residue. *: point of attachment. X1 = C[N+](C)(CCNC(=O)CCCCCCCCCCCCCCCCC(=O)O)CC(=O)*; Dip = N[C@H](C(=O)O)C(c1ccccc1)c1ccccc1; Pro(3R-OH) = O=C(O)[C@H]1NCC[C@H]1O; NMeK = CN[C@@H](CCCCN)C(=O)O; Isovaleryl = CC(C)CC(=O)*; AEEA = NCCOCCOCC(=O)O; Ahx = NCCCCCC(=O)O
Reported pIC50 values for a set of compounds

# compound, assayedSystem, result
records = [
    ("CC(C)CC(=O)N[C@@H](CCC(=O)O)C(=O)N[C@H](C(=O)N[C@@H](Cc1c[nH]cn1)C(=O)N[C@H](C(=O)N1CCC[C@H]1C(=O)N[C@H]1CSSC[C@@H](C(=O)N(C)[C@@H](CCCCNC(=O)COCCOCCNC(=O)COCCOCCNC(=O)C[N+](C)(C)CCNC(=O)CCCCCCCCCCCCCCCCC(=O)O)C(=O)N[C@H](C(=O)N[C@H](CCCCN)C(N)=O)C(c2ccccc2)c2ccccc2)NC1=O)C(c1ccccc1)c1ccccc1)[C@@H](C)O [compound 158] (Isovaleryl-ETH[Dip]PCC[NMeK]([AEEA-AEEA-X1])[Dip][dK]-NH2; disulfide 6-7)", "ferroportin (Homo sapiens, UniProt Q9NP59)", "7.00 to 8.00"),
]

Moving on to another compound below.
Task: Reported pIC50 for CC(C)CC(=O)N[C@@H](CCC(=O)O)C(=O)N1CC[C@@H](O)[C@H]1C(=O)N[C@@H](Cc1c[nH]cn1)C(=O)N[C@H](C(=O)N1CCC[C@H]1C(=O)N[C@H]1CSSC[C@@H](C(=O)N(C)[C@@H](CCCCNC(=O)CCCCCNC(=O)C[N+](C)(C)CCNC(=O)CCCCCCCCCCCCCCCCC(=O)O)C(=O)N[C@H](C(=O)N(C)[C@@H](CCCCN)C(N)=O)C(c2ccccc2)c2ccccc2)NC1=O)C(c1ccccc1)c1ccccc1 [compound 156] (Isovaleryl-E[Pro(3R-OH)]H[Dip]PCC[NMeK]([Ahx-X1])[Dip][NMeK]-NH2; disulfide 6-7) : what is it?
Result: 7.00 to 8.00

Data provenance is patent US20250277012A1.
